target: HLA-A*6801 (human); conditions: remark: other sources report otherwise
pIC50: −log10 of the molar value.

{"binder": "LLPIFFCLWVY (modifications not checked) [peptide 26.0549]", "pIC50": 7.09}
